Experiment: pH solubility
Format: physicochemical
Cond: water, pH 8.9, water, thermodynamic from solid; natural pH of 8.9; read-out: Solubility in water
Procedure: Solubility in water is 0.66 mg/mL with a natural pH of 8.9.
Test Readout: solubility (mg/mL)
Numeric answer only, unit mg/mL assumed.

May I ask what solubility has been recorded for CN(CCN1CCC(OC(=O)Nc2ccccc2-c2ccccc2)CC1)C(=O)c1ccc(CN2CCC(C(N)=O)CC2)cc1 [Form III] ?
0.66
